Source of measurements: patent EP0768085A1

# System: Enterococcus from fish
# testProtocol: Antibacterial activity (IC), agar as in Example 8, media with 1.5% NaCl, 25°C (Example 20, Tables 53-55)
# Format: cell-based
# conditionContext: Enterococcus Seriolicida KG86050

molecule	IC
CC(Oc1cc(Oc2ccc(C(F)(F)F)cc2Cl)ccc1[N+](=O)[O-])C(=O)C(C#N)c1ccc(Cl)cc1Cl (stereo not drawn)	≤10 (10-1 µg/ml)
CC(Oc1cc(Cl)cc(Oc2ccc(C(F)(F)F)cc2Cl)c1)C(=O)C(C#N)c1ccc(Cl)c(Cl)c1 (stereo not drawn)	≤ 1 µg/mL
CC(Oc1cccc(Oc2ccc(Br)cc2F)c1)C(=O)C(C#N)c1cccc(Cl)c1 (stereo not drawn)	≤10 (10-1 µg/ml)
CC(Oc1cccc(Oc2ccc(C(F)(F)F)cc2Cl)c1)C(=O)C(C#N)c1cccc(C(F)(F)F)c1 (stereo not drawn)	≤10 (10-1 µg/ml)
CC(Oc1cccc(Oc2ccc(C(F)(F)F)cc2Cl)c1)C(=O)C(C#N)c1ccc(Cl)c(Cl)c1 (stereo not drawn)	≤ 1 µg/mL
CC(Oc1cccc(Oc2ccc(C(F)(F)F)cc2Cl)c1)C(=O)C(C#N)c1ccccc1 (stereo not drawn)	≤10 (10-1 µg/ml)

###

# Test system: Enterococcus from fish
# testProtocol: Antibacterial activity (IC), agar as in Example 8, media with 1.5% NaCl, 25°C (Example 20, Tables 53-55)
# Type: cell-based
# conditionContext: Enterococcus Seriolicida MS89064
metric: IC

compound	measurementTarget	metric	result
CC(Oc1cc(Oc2ccc(C(F)(F)F)cc2Cl)cc(Oc2ccc(C(F)(F)F)cc2Cl)c1)C(=O)C(C#N)c1cccc(Br)c1 (stereo not shown) [compound 211]	Enterococcus from fish	IC	≤10 (10-1 µg/ml)
Cc1cc(Oc2ccc(C(F)(F)F)cc2Cl)cc(OC(C)C(=O)C(C#N)c2ccc(Cl)c(Cl)c2)c1 (stereo not shown) [Compound No. 112]	Enterococcus from fish	IC	≤10 (10-1 µg/ml)
CC(Oc1cccc(Oc2ccc(C(F)(F)F)cc2Cl)c1)C(=O)C(C#N)c1ccc(Cl)cc1Cl (stereo not shown) [Compound No. 108]	Enterococcus from fish	IC	≤10 (10-1 µg/ml)
CC(Oc1cc(Oc2ccc(C(F)(F)F)cc2Cl)ccc1Cl)C(=O)C(C#N)c1cccc(Br)c1 (stereo not shown) [Compound No. 155]	Enterococcus from fish	IC	≤ 1 µg/mL
CC(Oc1cccc(Oc2ccc(Br)cc2F)c1)C(=O)C(C#N)c1cccc(Br)c1 (stereo not shown) [Compound No. 111]	Enterococcus from fish	IC	≤10 (10-1 µg/ml)
CC(Oc1cccc(Oc2ccc(C(F)(F)F)cc2Cl)c1)C(=O)C(C#N)c1ccc(Cl)c(Cl)c1 (stereo not shown) [Compound No. 103]	Enterococcus from fish	IC	≤ 1 µg/mL

###

MIC reference
# Tested on: Enterococcus from fish
metric: MIC

molecule	result
CC(Oc1cc(Oc2ccc(C(F)(F)F)cc2Cl)ccc1[N+](=O)[O-])C(=O)C(C#N)C(=O)N1CCCCC1 (stereo not shown) [compound 135]	10 to 100 µg/mL
CC(Oc1cc(Cl)cc(Oc2ccc(C(F)(F)F)cc2Cl)c1)C(=O)C(C#N)c1ccc(Cl)c(Cl)c1 (stereo not shown) [compound 212]	≤ 1 µg/mL
CC(Oc1cc(Oc2ccc(C(F)(F)F)cc2Cl)ccc1[N+](=O)[O-])C(=O)C(C#N)c1ccc(Cl)cc1Cl (stereo not shown) [Compound No. 116]	1 to 10 µg/mL
CC(Oc1cc(Oc2ccc(C(F)(F)F)cc2Cl)cc(Oc2ccc(C(F)(F)F)cc2Cl)c1)C(=O)C(C#N)c1ccc(Cl)c(Cl)c1 (stereo not shown) [compound 210]	1 to 10 µg/mL
CC(Oc1cc(Cl)cc(Oc2ccc(C(F)(F)F)cc2Cl)c1)C(=O)C(C#N)c1cccc(Br)c1 (stereo not shown) [compound 213]	≤ 1 µg/mL
Cc1cc(Oc2ccc(C(F)(F)F)cc2Cl)cc(OC(C)C(=O)C(C#N)c2ccc(Cl)c(Cl)c2)c1 (stereo not shown) [Compound No. 112]	1 to 10 µg/mL
CC(Oc1cccc(Oc2ccc(C(F)(F)F)cc2Cl)c1)C(=O)C(C#N)c1ccc(Cl)cc1Cl (stereo not shown) [Compound No. 108]	1 to 10 µg/mL

###

# Tested on: Pasteurella from fish
# testProtocol: Antibacterial activity (IC), agar as in Example 8, media with 1.5% NaCl, 25°C (Example 20, Tables 53-55)
# Format: cell-based
# conditionContext: Pasteurella piscicida KP94-05

molecule	measurementTarget	IC
CC(Oc1cccc(Oc2ccc(C(F)(F)F)cc2Cl)c1)C(=O)C(C#N)c1ccc(Cl)c(Cl)c1 (stereo not shown) [Compound No. 103]	Pasteurella from fish	≤10 (10-1 µg/ml)
